- system.under.test: T1, NPNA4 peptide (Plasmodium falciparum (isolate 3D7)., not fully specified)
- T1 construct: source: synthetic peptide (InnoPep Inc)
- T1 chain: NPNANPNANPNANPNA
- method.notes: BLI
- reported.conditions: both partners purified
Ends that are not written are not given here.
Would you kindly list koff for each of these binders?
Write down the numeric answer in s⁻¹ and omit the unit.

Endpoint output: koff of 337 Fab (Fab, V domains shown, also called mAb 337; source: ExpiCHO cells, purified (mAb Select PrismA or Capture Select, SEC)) VH: QVQLVESGGGVVQPGRSLRLSCAASGFSFSTYGMHWVRQAPGKGLEWVALIWHDGSKKFYSESVRGRFTISRDNSMDTLYLQMSSLRAEDTAVYYCARDGADYFDSTGGAFDIWGQGTMVIVSS VL: EIVMTQSPATLSVSPGERATLSCRASQSVSSNLAWYQQKPGQAPRLLIYGASTRATGIPARFSGSGSGTEFTLTISSLQSEDFATYYCQQYKTWWTFGQGTKVEIK . Value?
0.007

Return reported koff; argument: 364 Fab (Fab, V domains shown, also called mAb 364; source: ExpiCHO cells, purified (mAb Select PrismA or Capture Select, SEC)) VH: QVQLVESGGGVVQPGGSLRLSCAASGFTFSGYGMHWVRQVPGKGLEWVAIIWFDGSQKYYADSVQGRFTISRDNSKKTLFLRMNSLRAEDTAVYYCAKVHDDEPTQDYWGQGTLVTVSS VL: DIQMTQSPSTLSASVGDRVTITCRASQGISTSLAWYQQKPGKAPKLLIYKASSLESGVPSRFSGSGSGTEFTLTITSLQPEDFATYYCQQYKRYWTFGQGTKVEIK
0.0027

Which koff is listed for 356R Fab (Fab, V domains shown, also called germline-reverted 356; source: ExpiCHO cells, purified (mAb Select PrismA or Capture Select, SEC)) VH: QVQLVESGGGVVQPGRSLRLSCAASGFTFSSYGMHWVRQTPGKGLEWVAVIWHDGSNKFYADSVKGRFTISRDNSKNMIYLQMNSLRVEDTAIYYCARDSLFYDHDNSGYYGYWGQGTLVTVSS VL: EIVMTQSPATVSVSPGERATLSCRASQSVTSKLAWYQQKPGQAPRLLIYGASTRATGIPARFSGSGSGTEFTLTISSLQSEDFAVYFCQQYNNGFTFGPGTKVDFK ?
0.03

# get_value(readout='koff', item= 334 Fab (Fab, V domains shown, also called mAb 334; source: ExpiCHO cells, purified (mAb Select PrismA or Capture Select, SEC)) VH: QVQLVESGGGVVQPGRSLTLSCAASGFTFSNYGMHWVRQTPGKGLAWVAIIWYDGSKTYYEDSVKGRFTISRDNSKNTLYLQMNSLRVDDTAVYYCARVRHSSSRHGSAFDLWGQGTLVTVSS VL: VIQMTQSPSTLSASVGDRVTITCRASQSVSTWLAWYQQKPGQGPKLLIYEASSLESGVPSRFSGSGSGTEFTLTISSLQPDDFATYYCQQYNSYSFWTFGQGTKVEIK )
0.0021

Quick check: koff of 356 Fab (Fab, V domains shown, also called mAb 356; source: ExpiCHO cells, purified (mAb Select PrismA or Capture Select, SEC)) VH: QVQLVESGGGVVQPGRSLRLSCAASGFTFRNFGMHWVRQTPGKGLEWVAVIWHDGSNKFYADSVEGRFTISRDNSKNMIYLQMNSLRVEDTAIYYCARDSLFYDHDNSGYYGYWGQGTLVTVSS VL: QIVMTQSPATVSVSPGERATLSCRASRSVTSKLAWYQQKPGQAPRLLIYGASTRATGIPARFSGSGSGTEFTLTISSLQSEDFAVYFCQQYNNGFTFGPGTKVDFK ?
0.013
